Test system: Poa annua
Assay: Herbicidal post-emergence action, POAAN
Assay type: in vivo
Conditions: 320 g/ha, assessed visually after ca. 3 weeks vs untreated controls
Experimental endpoint: herbicidal effect POAAN (%)

>>> numeric_value("COc1nccc(C(F)(F)F)c1C(=O)Nc1ncns1")
90
>>> numeric_value("O=C(Nc1nc(Cl)ns1)c1c(C(F)(F)F)ccnc1F")
90
>>> numeric_value("O=C(Nc1ncns1)c1cnccc1C(F)(F)F")
100
>>> numeric_value("O=C(Nc1ncns1)c1c(C(F)(F)F)ccnc1F")
100
>>> numeric_value("O=C(Nc1ncns1)c1c(C(F)(F)F)ccnc1C1CC1")
100

---

Entries and their herbicidal effect VERPE values follow.
Test system: Veronica persica
Test: Herbicidal post-emergence action, VERPE
Assay type: in vivo
Conditions: 1280 g/ha, assessed visually after ca. 3 weeks vs untreated controls
Experimental endpoint: herbicidal effect VERPE (%)

>>> numeric_value("O=C(Nc1ncns1)c1c(C(F)(F)F)ccnc1Cl [Example I-021]")
100
>>> numeric_value("Cc1cc(Cl)nc(Cl)c1C(=O)Nc1ncns1 [Example I-020]")
100
>>> numeric_value("CC(C)c1ccnc(Cl)c1C(=O)Nc1ncns1 [Example I-026]")
90
>>> numeric_value("O=C(Nc1ncns1)c1c(C(F)(F)F)ccnc1C1CC1 [Example I-005]")
100
>>> numeric_value("CC(C)c1ccnc(F)c1C(=O)Nc1ncns1 [Example I-025]")
90

---

Tested on: Veronica persica
Assay: Herbicidal post-emergence action, VERPE
Assay type: in vivo
Details: 1280 g/ha, assessed visually after ca. 3 weeks vs untreated controls
Entries and their herbicidal effect VERPE values follow.
Experimental endpoint: herbicidal effect VERPE (%)

>>> numeric_value("O=C(Nc1ncns1)c1cnc(Cl)cc1C(F)(F)F")
90
>>> numeric_value("Cc1nsc(NC(=O)c2c(C(F)(F)F)ccnc2F)n1")
90
>>> numeric_value("O=C(Nc1nc(Cl)ns1)c1cnccc1C(F)(F)F")
90
>>> numeric_value("COc1nccc(C(F)(F)F)c1C(=O)Nc1ncns1")
100
>>> numeric_value("O=C(Nc1ncns1)c1c(C(F)(F)F)ccnc1F")
100

---

Tested on: Matricaria inodora
Experiment: Herbicidal pre-emergence action, MATIN
Type: in vivo
Conditions: 1280 g/ha, visual grading after ca. 3 weeks vs untreated controls
Entries and their herbicidal effect MATIN values follow.
Experimental endpoint: herbicidal effect MATIN

>>> result("CC(C)c1ccnc(Cl)c1C(=O)Nc1ncns1")
"100%"
>>> result("Cc1ccnc(Cl)c1C(=O)Nc1ncns1")
"100%"
>>> result("Cc1ccncc1C(=O)Nc1ncns1")
"90%"
>>> result("O=C(Nc1ncns1)c1c(C(F)(F)F)ccnc1Cl")
"100%"
>>> result("O=C(Nc1ncns1)c1cnccc1C(F)(F)F")
"100%"
>>> result("O=C(Nc1ncns1)c1c(C(F)(F)F)ccnc1F")
"100%"
>>> result("Cc1cc(Cl)nc(Cl)c1C(=O)Nc1ncns1")
"90%"
>>> result("O=C(Nc1nc(Cl)ns1)c1c(C(F)(F)F)ccnc1F")
"100%"
>>> result("O=C(Nc1ncns1)c1cnc(Cl)cc1C(F)(F)F")
"90%"

---

Test system: Matricaria inodora
Assay: Herbicidal pre-emergence action, MATIN
Assay type: in vivo
Settings: 1280 g/ha, visual grading after ca. 3 weeks vs untreated controls
Experimental endpoint: herbicidal effect MATIN (%)

>>> numeric_value("COc1nccc(C(F)(F)F)c1C(=O)Nc1ncns1")
100
>>> numeric_value("CC(C)c1ccnc(F)c1C(=O)Nc1ncns1")
100
>>> numeric_value("Cc1cc(F)ncc1C(=O)Nc1ncns1")
100
>>> numeric_value("CCc1ccnc(Cl)c1C(=O)Nc1ncns1")
90
>>> numeric_value("O=C(Nc1ncns1)c1c(C(F)(F)F)ccnc1C1CC1")
100

---

Test system: Stellaria media
Experiment: Herbicidal pre-emergence action, STEME
Type: in vivo
Details: 1280 g/ha, visual grading after ca. 3 weeks vs untreated controls
Entries and their herbicidal effect STEME values follow.
Experimental endpoint: herbicidal effect STEME (%)

>>> numeric_value("Cc1cc(F)ncc1C(=O)Nc1ncns1 [Example I-023]")
90
>>> numeric_value("O=C(Nc1ncns1)c1c(C(F)(F)F)ccnc1Cl [Example I-021]")
100
>>> numeric_value("CCc1ccnc(Cl)c1C(=O)Nc1ncns1 [Example I-004]")
100
>>> numeric_value("O=C(Nc1ncns1)c1cnccc1C(F)(F)F [Example I-001]")
100
>>> numeric_value("COc1nccc(C(C)C)c1C(=O)Nc1ncns1 [Example I-027]")
90
>>> numeric_value("O=C(Nc1ncns1)c1c(C(F)(F)F)ccnc1C1CC1 [Example I-005]")
100
>>> numeric_value("CC(C)c1ccnc(F)c1C(=O)Nc1ncns1 [Example I-025]")
90
>>> numeric_value("CC(C)c1ccnc(Cl)c1C(=O)Nc1ncns1 [Example I-026]")
100
>>> numeric_value("O=C(Nc1ncns1)c1c(C(F)(F)F)ccnc1F [Example I-002]")
100
>>> numeric_value("O=C(Nc1nc(Cl)ns1)c1c(C(F)(F)F)ccnc1F [Example I-009]")
100
>>> numeric_value("Cc1nsc(NC(=O)c2c(C(F)(F)F)ccnc2F)n1 [Example I-008]")
90
>>> numeric_value("COc1nccc(C(F)(F)F)c1C(=O)Nc1ncns1 [Example I-010]")
90
>>> numeric_value("Cc1ccncc1C(=O)Nc1ncns1 [Example I-011]")
90
>>> numeric_value("Cc1ccnc(Cl)c1C(=O)Nc1ncns1 [Example I-003]")
100
>>> numeric_value("Cc1ccnc(Br)c1C(=O)Nc1ncns1 [Example I-022]")
100
>>> numeric_value("Cc1cc(Cl)nc(Cl)c1C(=O)Nc1ncns1 [Example I-020]")
100

---

Entries and their herbicidal effect KCHSC values follow.
Tested on: Kochia scoparia
Assay: Herbicidal post-emergence action, KCHSC
Assay type: in vivo
Conditions: 1280 g/ha, assessed visually after ca. 3 weeks vs untreated controls
Experimental endpoint: herbicidal effect KCHSC (%)

>>> numeric_value("O=C(Nc1nc(Cl)ns1)c1cnccc1C(F)(F)F [Example I-015]")
90
>>> numeric_value("O=C(Nc1nc(Br)ns1)c1cnccc1C(F)(F)F [Example I-014]")
90
>>> numeric_value("O=C(Nc1nc(C(F)(F)F)ns1)c1cnccc1C(F)(F)F [Example I-013]")
100
>>> numeric_value("O=C(Nc1ncns1)c1c(C(F)(F)F)ccnc1C1CC1 [Example I-005]")
90
>>> numeric_value("O=C(Nc1ncns1)c1c(C(F)(F)F)ccnc1Cl [Example I-021]")
100
>>> numeric_value("O=C(Nc1nc(Cl)ns1)c1c(C(F)(F)F)ccnc1F [Example I-009]")
100
>>> numeric_value("CC(C)c1ccnc(Cl)c1C(=O)Nc1ncns1 [Example I-026]")
90
>>> numeric_value("O=C(Nc1ncns1)c1c(C(F)(F)F)ccnc1F [Example I-002]")
100
>>> numeric_value("COc1nccc(C(F)(F)F)c1C(=O)Nc1ncns1 [Example I-010]")
100

---

Entries and their herbicidal effect VERPE values follow.
Tested on: Veronica persica
Test: Herbicidal pre-emergence action, VERPE
Type: in vivo
Details: 1280 g/ha, visual grading after ca. 3 weeks vs untreated controls
Experimental endpoint: herbicidal effect VERPE (%)

>>> numeric_value("Cc1ccnc(Cl)c1C(=O)Nc1ncns1 [Example I-003]")
90
>>> numeric_value("O=C(Nc1ncns1)c1c(C(F)(F)F)ccnc1Cl [Example I-021]")
90
>>> numeric_value("O=C(Nc1nc(Cl)ns1)c1c(C(F)(F)F)ccnc1F [Example I-009]")
90
>>> numeric_value("O=C(Nc1ncns1)c1c(C(F)(F)F)ccnc1F [Example I-002]")
100

---

Entries and their herbicidal effect VERPE values follow.
System: Veronica persica
Experiment: Herbicidal post-emergence action, VERPE
Type: in vivo
Conditions: 320 g/ha, assessed visually after ca. 3 weeks vs untreated controls
Source text: Seeds of mono- and dicotyledonous weed plants were sown in plastic pots (double sowings with one species of mono- and one species of dicotyledonous weed plants per pot), in sandy loam, covered with soil and grown under controlled growth conditions. 2 to 3 weeks after sowing, the test plants were sprayed in the single-leaf stage. […]
Experimental endpoint: herbicidal effect VERPE (%)

>>> numeric_value("O=C(Nc1ncns1)c1c(C(F)(F)F)ccnc1C1CC1")
100
>>> numeric_value("O=C(Nc1ncns1)c1c(C(F)(F)F)ccnc1F")
100
>>> numeric_value("COc1nccc(C(F)(F)F)c1C(=O)Nc1ncns1")
100
>>> numeric_value("O=C(Nc1nc(C(F)(F)F)ns1)c1cnccc1C(F)(F)F")
100
>>> numeric_value("Cc1ccnc(Cl)c1C(=O)Nc1ncns1")
90
>>> numeric_value("O=C(Nc1nc(Cl)ns1)c1cnccc1C(F)(F)F")
90
>>> numeric_value("O=C(Nc1ncns1)c1c(C(F)(F)F)ccnc1Cl")
100
>>> numeric_value("O=C(Nc1nc(Cl)ns1)c1c(C(F)(F)F)ccnc1F")
100
